system: CAMK1D; details: concentration: 1 μM,replicates: in singlicate; n = 1;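 note: KINOMEscan kinase panel screen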
Form field: %Inh (one value per entry).
Respond numerically; units are % and should not be typed.

Example cases with answers are listed next.
Molecule | Attribute measured | Endpoint value
Cc1n[nH]c2ccc(-c3cc(OC[C@@H](N)Cc4ccccc4)cnc3-c3ccoc3)cc12.O=C(O)C(F)(F)F.O=C(O)C(F)(F)F | %Inh | 45
CC(C)Nc1cc(-c2ccc3c(N)n[nH]c3c2)nc(N)n1 | %Inh | 13
C[C@H]1Oc2cc(cnc2N)-c2c(nn(C)c2C#N)CN(C)C(=O)c2ccc(F)cc21 | %Inh | 33
Cc1cc(C(=O)Nc2ccc(Oc3ccc4nc(NC(=O)C5CC5)cn4n3)cc2)nn1-c1ccccc1 | %Inh | 15
C[C@@H](Oc1cc(-c2cnn(C3CCNCC3)c2)cnc1N)c1c(Cl)ccc(F)c1Cl | %Inh | 0
C=CC(=O)Nc1cc2c(Nc3ccc(F)c(Cl)c3)ncnc2cc1OCCCN1CCOCC1 | %Inh | 28
Nc1nc(Nc2ccccc2)cc(-c2ccc3c(N)n[nH]c3c2)n1 | %Inh | 11
Cl.Cl.NC[C@H](CC1CCCCC1)NC(=O)c1cc(Br)c(-c2ccnc3[nH]ccc23)s1 | %Inh | 11

Query (molecule): "CCN(CC)CCCCNc1ncc2cc(-c3c(Cl)cccc3Cl)c(NC(=O)NC(C)(C)C)nc2n1" ; field requested: %Inh
16

Query (molecule): "COc1ccc(C[C@@H](CN)NC(=O)c2cc(Br)c(-c3ccnc4[nH]ccc34)s2)cc1.Cl.Cl" ; field requested: %Inh
26

Query (molecule): "NC(=O)c1cc(-c2ccccc2)cc2c(C3CCNCC3)c[nH]c12" ; field requested: %Inh
69
